# System: CP194
# Experiment notes: qHTS profiling for inhibitors of Plasmodium falciparum proliferation (AID 504749); further: nearly all actives have a fitted effect of over 60% in size; further: potency means the concentration at half of the fitted maximal effect
# Experimental setup: P. falciparum in erythrocytes, SYBR Green DNA, 72 h; series mostly up to 28.7 µM
# Method: NIH National Institute of Allergy and Infectious Diseases [NIAID] NIH Chemical Genomics Center [NCGC] […] Because mature erythrocytes lack DNA, only Plasmodium-derived DNA is detected. NCGC Assay Protocol Summary: The SYBR Green viability assay was adapted from a method described previously (Plouffe et al., 2008). […] The following morning, fluorescence intensity at 485(14) nm excitation and 535(25) nm emission wavelengths was measured on an EnVision (Perkin Elmer) plate reader. […]
Results filed as inconclusive are left out. Activity calls are given as the source filed them. The call rests on the fitted dose curve; in most records, active means well fitted inhibition curve with a large enough effect; inconclusive means small, poorly fitted or top-dose-only effect; inactive means flat fitted curve, though single readings scatter.
Measured parameter: Potency

Example entries and their recorded answers appear below.
# Compound, Potency
measured = [
    ("COc1cc(NS(C)(=O)=O)ccc1Nc1c2ccccc2nc2ccccc12", "4.78 µM (active)"),
    ("CC(C)(CO)[C@@H](O)C(=O)NCCCO", "inactive"),
    ("Cc1cc(O)c(C(C)C)cc1Cl", "inactive"),
    ("CCN(CC)C(=O)/C(C#N)=C/c1cc(O)c(O)c([N+](=O)[O-])c1", "inactive"),
    ("COc1cc2c(cc1OC)C(=O)C(CC1CCN(Cc3ccccc3)CC1)C2 (stereo unspecified)", "inactive"),
]

Now consider the entry below.
Input line: Return reported Potency; argument: O=C(O)c1cc2cc(Cc3cccnc3)ccc2o1
Output line: inactive
